Test system: UACC-62 melanoma
Test: NCI-60 one-dose screen, 48 h (100 = growth as untreated, 0 = no growth, -100 = all killed)
Conditions: 10 µM unless noted
The panel holds about 83,000 compounds, 20% with a hit somewhere; the sample as a whole holds those more often. The source made the active and inactive calls. The calls were made as follows: active = growth percent below 10; inactive = the rest.
Give measured growth for each item. Keep answers brief.

Reported UACC-62 melanoma growth for item CCCc1cc(=O)n2c(C(=O)Nc3ccc(F)cc3)c(C(=O)Nc3ccc(F)cc3)sc2n1 was 84% [30 µM] (inactive)

Reported UACC-62 melanoma growth for item Clc1ccc2c(NCCCNc3nc(-n4ccnc4)nc4ccccc34)ccnc2c1 was 94.3% (inactive)

Reported UACC-62 melanoma growth for item CC(C)CC1C(=O)N2CCC[C@H]2C2(O)O[C@](NC(=O)C3C=C4c5cccc6[nH]c(Br)c(c56)C[C@H]4N(C)C3)(C(C)C)C(=O)N12 (some centres undefined) was 56.4% (inactive)

Reported UACC-62 melanoma growth for item CC(C)(C)c1cc(C(C)(C)C)cc(S(=O)(=O)Nc2cc3ccccc3cc2C(=O)NCCN)c1 was 55% (inactive)
